Values were extracted from ChEMBL document CHEMBL1144814.

target system: UniProtKB P11712
Sequence (P11712 whole entry): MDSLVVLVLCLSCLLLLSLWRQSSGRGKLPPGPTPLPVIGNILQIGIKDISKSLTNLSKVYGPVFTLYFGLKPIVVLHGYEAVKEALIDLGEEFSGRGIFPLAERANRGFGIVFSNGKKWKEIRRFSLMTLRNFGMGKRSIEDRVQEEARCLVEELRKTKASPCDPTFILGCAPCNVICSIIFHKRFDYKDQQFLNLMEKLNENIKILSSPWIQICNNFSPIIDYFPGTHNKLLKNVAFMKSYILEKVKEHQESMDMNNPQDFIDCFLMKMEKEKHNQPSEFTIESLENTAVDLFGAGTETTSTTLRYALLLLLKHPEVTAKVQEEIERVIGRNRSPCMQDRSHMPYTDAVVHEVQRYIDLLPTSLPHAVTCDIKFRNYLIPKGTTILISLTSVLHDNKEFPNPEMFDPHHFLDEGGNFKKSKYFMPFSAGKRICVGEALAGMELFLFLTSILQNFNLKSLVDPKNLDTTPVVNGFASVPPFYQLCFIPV
test summary: Inhibition of CYP2C9 at 10 uM
Format: ADME
measurement type: inhibition at 10 µM (%)
Answer in %, number only, no unit symbol.

Determine from records and report inhibition at 10 µM for `CCOc1cc(S(=O)(=O)c2ccc3c(c2)nc(C(C)(C)C)n3CC2CCOCC2)ccn1`
94

====

test summary: Ratio of EC50 for CB2 receptor to EC50 for CB1 receptor (unknow origin)
Lab note: compare Ratio EC50 with 600, writing MET if less and NOT MET if equal or more.

- molecule: "CCNCCCS(=O)(=O)c1ccc2c(c1)nc(C(C)(C)C)n2CC1CCOCC1"
  class assignment: "MET"
- molecule: "[O-][S+](Cc1ccc(Cl)cc1)c1cc2nc(C3CCCCC3)[nH]c2cc1Cl (stereo not given)"
  class assignment: "NOT MET"
- molecule: "CC(C)(C)c1nc2cc(S(=O)(=O)c3ccnc(F)c3)ccc2n1CC1CCOCC1"
  class assignment: "MET"
- molecule: "CCS(=O)(=O)c1ccc2c(c1)nc(C(C)(C)C)n2CC1CCOCC1"
  class assignment: "MET"
- molecule: "CC(C)(C)c1nc2cc(S(=O)(=O)CCO)ccc2n1CC1CCOCC1"
  class assignment: "NOT MET"

State whether 600 exceeds Ratio EC50 recorded for `CC(C)(C)c1nc2cc(S(=O)(=O)CCC#N)ccc2n1CC1CCOCC1` .
NOT MET

Decide: Ratio EC50 of `CC(=O)N(C)Cc1ccc(S(=O)(=O)c2ccc3c(c2)nc(C(C)(C)C)n3CC2CCOCC2)cc1` strictly below 600?
MET

Is Ratio EC50 of `CC(C)(C)c1nc2cc(S(=O)(=O)c3ccc(CN)cc3)ccc2n1CC1CCOCC1` strictly below 600?
MET

Lab log: compare recorded Ratio EC50 with 600; is it strictly lower for `CCOc1ccc(Cc2nc3cc(SCC)c(Cl)cc3n2CC2CCCCC2)cc1` ?
MET

Input `Cc1cc(S(=O)(=O)c2ccc3c(c2)nc(C(C)(C)C)n3CC2CCOCC2)ccn1` ; condition: Ratio EC50 strictly below 600. Does it hold?
NOT MET

====

target system: Cannabinoid receptor 2 (Homo sapiens, UniProt P34972)
Sequence (P34972 whole entry): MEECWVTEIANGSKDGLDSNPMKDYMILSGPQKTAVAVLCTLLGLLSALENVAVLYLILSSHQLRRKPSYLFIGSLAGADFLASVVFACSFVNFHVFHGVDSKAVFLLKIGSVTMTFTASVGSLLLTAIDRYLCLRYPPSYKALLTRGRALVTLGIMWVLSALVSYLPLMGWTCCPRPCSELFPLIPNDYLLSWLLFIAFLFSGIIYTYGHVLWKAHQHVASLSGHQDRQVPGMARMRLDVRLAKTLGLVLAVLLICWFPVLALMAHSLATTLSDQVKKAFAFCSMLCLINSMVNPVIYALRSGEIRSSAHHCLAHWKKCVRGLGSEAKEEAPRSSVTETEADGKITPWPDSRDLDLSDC
test summary: Agonist activity at human CB2 receptor
Overview of reported pEC50 across a group of compounds:
// pEC50 is dimensionless: -log10 of concentration (M)

- compound: "CC(C)(C)c1nc2cc(S(=O)(=O)c3ccnc(F)c3)ccc2n1CC1CCOCC1"
  pEC50: 9.10
- compound: "CCOc1ccc(Cc2nc3cc([S+]([O-])CC)c(Cl)cc3n2CC2CCCCC2)cc1 (configuration not stated)"
  pEC50: 8.20
- compound: "CCOc1ccc(Cc2nc3cc(S(=O)(=O)CC)ccc3n2CC2CCOCC2)cc1"
  pEC50: 8.40
- compound: "CC(C)(C)c1nc2cc(S(=O)(=O)c3cccc(C#N)c3)ccc2n1CC1CCOCC1"
  pEC50: 9.30

Entry `CC(C)(C)c1nc2cc(S(=O)(=O)Cc3ccc(C#N)cc3)ccc2n1CC1CCCCC1` needs its pEC50 filled in; supply it.
9.30

Indicate the recorded pEC50 value for this compound: `CC(C)(C)c1nc2cc(S(=O)(=O)CCC#N)ccc2n1CC1CCOCC1`
8.40

Please indicate pEC50 recorded for `CCOc1cc(S(=O)(=O)c2ccc3c(c2)nc(C(C)(C)C)n3CC2CCOCC2)ccn1`
9.52

====

test summary: Ratio of drug level in brain to plasma in Sprague-Dawley rat at 10 mg/kg, po
Format: ADME, organism-based
Set-up: dose 10 mg/kg, route oral
condition context: read-out: BPR
measurement type: Kp
Just the number, please, no unit attached.

Note Kp for the compound shown: `CCOc1cc(S(=O)(=O)c2ccc3c(c2)nc(C(C)(C)C)n3CC2CCOCC2)ccn1`
0.1

====

target system: Cannabinoid receptor 2 (Homo sapiens)
test summary: Agonist activity at human CB2 receptor
The entries below come with measured pEC50 values attached.
Kindly note that pEC50 refers to -log10 of the concentration in mol/L and answer with the value alone.

Study these solved cases before continuing.
- smiles notation: "CCS(=O)(=O)c1ccc2c(c1)nc(C1CC1)n2CC1CCOCC1"
  pEC50: 8.40
- smiles notation: "CCS(=O)(=O)c1ccc2c(c1)nc(C(C)(C)C)n2CC1CCOCC1"
  pEC50: 8.92
- smiles notation: "CC(C)(C)c1nc2cc(S(=O)(=O)c3nccs3)ccc2n1CC1CCOCC1"
  pEC50: 9.10
- smiles notation: "CCS(=O)(=O)c1ccc2c(c1)nc(CC(C)C)n2CC1CCOCC1"
  pEC50: 8.40

For the molecule `CC(C)(C)c1nc2cc(S(=O)(=O)CCC(F)(F)F)ccc2n1CC1CCOCC1` , give its reported pEC50.
8.89

Dear colleague, please send me the reported pEC50 for `CC(C)(C)c1nc2cc(S(=O)(=O)CC3CC3)ccc2n1CC1CCOCC1` when you can.
8.89

====

target system: UniProt P33261
Sequence (P33261 whole entry): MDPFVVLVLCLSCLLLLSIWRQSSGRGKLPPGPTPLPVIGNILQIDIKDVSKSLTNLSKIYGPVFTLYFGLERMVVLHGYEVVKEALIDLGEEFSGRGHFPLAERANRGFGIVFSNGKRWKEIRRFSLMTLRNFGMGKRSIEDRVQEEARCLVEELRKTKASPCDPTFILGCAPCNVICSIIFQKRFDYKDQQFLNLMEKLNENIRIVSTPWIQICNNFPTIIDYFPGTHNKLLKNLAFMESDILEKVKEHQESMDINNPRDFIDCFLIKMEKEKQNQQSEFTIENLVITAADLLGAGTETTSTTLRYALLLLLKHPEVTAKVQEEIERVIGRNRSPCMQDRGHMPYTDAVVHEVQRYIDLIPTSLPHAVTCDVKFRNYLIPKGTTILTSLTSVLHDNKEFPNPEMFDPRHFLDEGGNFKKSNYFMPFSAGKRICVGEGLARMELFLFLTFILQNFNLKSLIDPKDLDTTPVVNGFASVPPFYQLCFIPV
test summary: Inhibition of CYP2C19 at 10 uM
Type: ADME
measurement type: inhibition at 10 µM (%)
The reply should be a number in %, with the unit left off.

Read off the recorded inhibition at 10 µM for `CCOc1cc(S(=O)(=O)c2ccc3c(c2)nc(C(C)(C)C)n3CC2CCOCC2)ccn1`
76

====

test summary: Ratio of EC50 for CB2 receptor to EC50 for CB1 receptor (unknow origin)
Could you mark each record Satisfied if its Ratio EC50 falls strictly under 400, and Not satisfied if it equals or exceeds it?

Use the examples below as a reference point.
- molecule: "CC(C)(C)c1nc2cc(S(=O)(=O)CCN)ccc2n1CC1CCOCC1"
  class assignment: "Not satisfied"
- molecule: "CC(C)(C)c1nc2cc(S(=O)(=O)c3nccs3)ccc2n1CC1CCOCC1"
  class assignment: "Satisfied"
- molecule: "CCOc1ccc(Cc2nc3cc([S+]([O-])CC)c(Cl)cc3n2CC2CCCCC2)cc1 (stereo not given)"
  class assignment: "Satisfied"

I'd appreciate it if you could check whether `CCOc1ccc(Cc2nc3cc(S(=O)(=O)CC)ccc3n2CC2CCOCC2)cc1` has Ratio EC50 smaller than 400.
Not satisfied

Just wondering, is Ratio EC50 of `CCOc1ccc(Cc2nc3cc(S(=O)(=O)CC)c(Cl)cc3n2CC2CCOCC2)cc1` below 400?
Not satisfied

In plain terms, does `CC(C)(C)c1nc2cc(S(=O)(=O)c3ccc(C#N)cc3)ccc2n1CC1CCOCC1` come in under 400 for Ratio EC50?
Satisfied

In plain terms, does `CCOc1ccc(Cc2nc3cc(S(=O)(=O)CC)c(Cl)cc3n2CC2CCCCC2)cc1` come in under 400 for Ratio EC50?
Satisfied

Hello, is Ratio EC50 of the following molecule strictly smaller than 400? `CC(=O)NCCCS(=O)(=O)c1ccc2c(c1)nc(C(C)(C)C)n2CC1CCOCC1`
Satisfied

Record `CC(C)(C)c1nc2cc(S(=O)(=O)c3cccc(C#N)c3)ccc2n1CC1CCOCC1` : is its Ratio EC50 strictly below 400?
Not satisfied

====

test summary: Ratio of EC50 for CB2 receptor to EC50 for CB1 receptor (unknow origin)
Recorded Ratio EC50, one value per entry.
Number only, please.

Reference set (5 entries):
- smiles notation: "CCOc1cc(S(=O)(=O)c2ccc3c(c2)nc(C(C)(C)C)n3CC2CCOCC2)ccn1"
  recorded value: 4270
- smiles notation: "CC(C)(C)c1nc2cc(S(=O)(=O)c3ccco3)ccc2n1CC1CCOCC1"
  recorded value: 40
- smiles notation: "CC(C)(C)c1nc2cc(S(=O)(=O)CCCC(F)(F)F)ccc2n1CC1CCOCC1"
  recorded value: 285
- smiles notation: "CCOc1ccc(Cc2nc3cc(SCC)c(Cl)cc3n2CC2CCOCC2)cc1"
  recorded value: 75
- smiles notation: "CC(C)(C)c1nc2cc(S(=O)(=O)Cc3ccc(C#N)cc3)ccc2n1CC1CCCCC1"
  recorded value: 436

Now examine the next entry.
Dear colleague, please send me the reported Ratio EC50 for `CC(C)(C)c1nc2cc(S(=O)(=O)CC3CC3)ccc2n1CC1CCOCC1` when you can.
121

====

test summary: Tmax in Sprague-Dawley rat at 10 mg/kg, po
Format: ADME, organism-based
Parameters: dose 10 mg/kg, route oral
condition context: in vivo
measurement type: Tmax (min)
The answer is to be given in min; state only the numeric part.

Report measured Tmax; entry is `CCOc1cc(S(=O)(=O)c2ccc3c(c2)nc(C(C)(C)C)n3CC2CCOCC2)ccn1`
30

====

test summary: Metabolism in human liver microsomes after 15 mins
measurement type: metabolized at 0.25 h (%)
Enter your answer as a number in %; do not include the unit.

Study these solved cases before continuing.
- compound: "CC(C)(C)c1nc2cc(S(=O)(=O)C(F)(F)c3ccc(C#N)cc3)ccc2n1CC1CCCCC1"
  measurement type: "metabolized at 0.25 h"
  recorded value: 28
- compound: "CCS(=O)(=O)c1ccc2c(c1)nc(C(C)(C)C)n2CC1CCOCC1"
  measurement type: "metabolized at 0.25 h"
  recorded value: 0
- compound: "CC(C)(C)c1nc2cc(S(=O)(=O)c3ccnc(F)c3)ccc2n1CC1CCOCC1"
  measurement type: "metabolized at 0.25 h"
  recorded value: 40
- compound: "CC(C)(C)c1nc2cc(S(=O)(=O)c3nccs3)ccc2n1CC1CCOCC1"
  measurement type: "metabolized at 0.25 h"
  recorded value: 25
- compound: "CCOc1ccc(Cc2nc3cc([S+]([O-])CC)c(Cl)cc3n2CC2CCOCC2)cc1 (stereo not given)"
  measurement type: "metabolized at 0.25 h"
  recorded value: 95

Please supply the value of reported metabolized at 0.25 h for the item `CCOc1ccc(Cc2nc3cc(SCC)c(Cl)cc3n2CC2CCCCC2)cc1`
85

Write down metabolized at 0.25 h measured for item `CC(C)(C)c1nc2cc(S(=O)(=O)CCC(F)(F)F)ccc2n1CC1CCOCC1`
13

Hello, please tell me recorded metabolized at 0.25 h for this one: `CC(C)(C)c1nc2cc(S(=O)(=O)CCC#N)ccc2n1CC1CCOCC1`
24
